Biological target: Histone deacetylase 8 (Homo sapiens)
Sequence (Q9BY41 whole entry): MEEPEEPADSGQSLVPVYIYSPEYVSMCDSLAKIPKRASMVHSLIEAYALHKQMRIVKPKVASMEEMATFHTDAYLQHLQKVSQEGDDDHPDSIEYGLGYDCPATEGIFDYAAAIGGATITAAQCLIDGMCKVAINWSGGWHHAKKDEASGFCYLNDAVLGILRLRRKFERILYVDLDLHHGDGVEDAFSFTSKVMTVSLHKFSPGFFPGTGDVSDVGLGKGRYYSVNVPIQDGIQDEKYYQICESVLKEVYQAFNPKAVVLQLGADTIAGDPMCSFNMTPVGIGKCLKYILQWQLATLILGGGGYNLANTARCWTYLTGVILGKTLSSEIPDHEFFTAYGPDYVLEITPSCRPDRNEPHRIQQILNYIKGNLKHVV
Assay: Inhibition of HDAC8 in human HeLa cells using Fluor-de-Lys as substrate after 15 mins by fluorescence assay
Each entry below carries its reported IC50.
The answer is to be given in nM; state only the numeric part.

Here's what some known entries look like.
In [3]: df
Out[3]:
                                        smi  endpoint_name   val
0  CCc1c2c(nc3ccc(OCc4cn(CCCCCCCC(=O)NO)nn4)cc13)-c1cc3c(c(=O)n1C2)COC(=O)[C@]3(O)CC           IC50  2600
1  CC[C@@]1(O)C(=O)OCc2c1cc1n(c2=O)Cc2cc3cc(OCc4cn(CCCCCCC(=O)NO)nn4)ccc3nc2-1           IC50  1050

// moving on: another record for IC50
Task: Fill in reported IC50 for this entry: "CCc1c2c(nc3ccc(OCc4cn(CCCC(=O)NO)nn4)cc13)-c1cc3c(c(=O)n1C2)COC(=O)[C@]3(O)CC"
Result: 1730

----------
Each entry below carries its reported pIC50.
test system: DU-145; test: Cytotoxicity against human DU145 cells assessed as inhibition of cell viability after 72 hrs by MTS assay; format: functional, cell-based; settings: DU-145, 72 h
As a rule, pIC50 stands for the negative log10 of the concentration, concentration in M.

Here's what some known entries look like.
>>> print(df.to_string())
                                   molecule  subject_of_test   val
0  CC[C@@]1(O)C(=O)OCc2c1cc1n(c2=O)Cc2cc3cc(OCc4cn(CCCCCC(=O)NO)nn4)ccc3nc2-1           DU-145  5.71
1  CCc1c2c(nc3ccc(OCc4cn(CCCCCCC(=O)NO)nn4)cc13)-c1cc3c(c(=O)n1C2)COC(=O)[C@]3(O)CC           DU-145  5.51
2  CCc1c2c(nc3ccc(OCc4cn(CCCC(=O)NO)nn4)cc13)-c1cc3c(c(=O)n1C2)COC(=O)[C@]3(O)CC           DU-145  5.20
3  CC[C@@]1(O)C(=O)OCc2c1cc1n(c2=O)Cc2cc3cc(OCc4cn(CCCCC(=O)NO)nn4)ccc3nc2-1           DU-145  5.60

// moving on: another record for pIC50
Task: Fill in reported pIC50 for this entry: CCc1c2c(nc3ccc(O)cc13)-c1cc3c(c(=O)n1C2)COC(=O)[C@]3(O)CC [7-ETHYL-10-HYDROXYCAMPTOTHECIN]
Result: 6.96
